target: DNA polymerase iota (Homo sapiens) (UniProt Q9UNA4); assay: qHTS for Inhibitors of Polymerase Iota; conditions: Pol iota fluorescent replication assay, 10 min; series mostly up to 115 µM
Sequence (Q9UNA4 whole entry, looked up): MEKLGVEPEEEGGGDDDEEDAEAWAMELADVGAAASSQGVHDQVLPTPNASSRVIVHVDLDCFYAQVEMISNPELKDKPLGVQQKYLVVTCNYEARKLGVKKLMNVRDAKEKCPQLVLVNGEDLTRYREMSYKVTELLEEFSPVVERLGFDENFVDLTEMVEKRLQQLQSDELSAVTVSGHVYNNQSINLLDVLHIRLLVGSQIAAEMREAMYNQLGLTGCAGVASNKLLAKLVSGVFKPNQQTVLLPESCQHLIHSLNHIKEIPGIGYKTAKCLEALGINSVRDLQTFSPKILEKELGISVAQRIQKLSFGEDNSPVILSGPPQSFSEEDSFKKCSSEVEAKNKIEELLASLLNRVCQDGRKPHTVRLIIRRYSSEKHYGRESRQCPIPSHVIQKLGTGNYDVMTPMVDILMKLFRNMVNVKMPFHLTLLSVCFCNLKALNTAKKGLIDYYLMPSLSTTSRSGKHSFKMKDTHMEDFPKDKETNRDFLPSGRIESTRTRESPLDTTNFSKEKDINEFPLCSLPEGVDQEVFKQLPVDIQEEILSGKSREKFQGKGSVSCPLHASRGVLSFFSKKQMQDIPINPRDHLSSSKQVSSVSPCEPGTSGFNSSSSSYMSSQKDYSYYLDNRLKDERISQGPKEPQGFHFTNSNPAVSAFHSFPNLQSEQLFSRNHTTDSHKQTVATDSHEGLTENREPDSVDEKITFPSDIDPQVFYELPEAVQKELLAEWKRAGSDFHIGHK
Hit rate of the full screen: of about 390,000 compounds, about 4,000 (1%) were called active. Another 7% or so got no clear call; they are omitted. Calls come from the whole dose curve; as a rule, active = well fitted inhibition curve with a large enough effect; inconclusive = small, poorly fitted or top-dose-only effect, or another doubt; inactive = no such curve, though single readings can be large or run the other way. The full list was thinned out, with actives kept by preference.
Hi there, use one of these labels in your reply, thanks! active, inactive

Look over these answered cases.
• O=C(Cc1cccs1)Nc1ccc([N+](=O)[O-])cc1 = inactive
• CCOc1ccccc1NC(=O)Cc1cccs1 = active

IN: What did the test return for COc1cc(/C=C/C(=O)OCC(=O)NC(=O)NCc2ccccc2)ccc1OCC#N ?
OUT: inactive

IN: What did the test return for O=C(CCNC(=O)c1ccccc1Cl)NN=Cc1ccco1 ?
OUT: inactive

IN: What did the test return for CN(C)c1ccc(/C=c2\[nH]c(=O)/c(=C/c3ccc(N(C)C)cc3)[nH]c2=O)cc1 ?
OUT: inactive

IN: What did the test return for CCc1nnc(NC(=O)Cc2cccs2)s1 ?
OUT: active

IN: What did the test return for CC(=O)c1cc(-c2ccccc2)[nH]c1N1CCCC1 ?
OUT: inactive

IN: What did the test return for O=C1NN(c2ccccc2)C(=O)/C1=C/c1ccc(-c2cccc(C(=O)O)c2)o1 ?
OUT: active

IN: What did the test return for CCOc1ccccc1NC(=O)CCn1cnnn1 ?
OUT: inactive

IN: What did the test return for CCc1nnc(NC(=O)CCC(=O)NCc2ccccc2OC)s1 ?
OUT: inactive

IN: What did the test return for O=C(CCc1n[nH]c(=O)[nH]c1=O)N/N=C/c1ccc(Br)o1 ?
OUT: inactive

IN: What did the test return for Cc1nc(N2CCOCC2)sc1C(=O)NN ?
OUT: active
